- Tested on: EPLC-272H
- METHOD: relative viability (nuclei count vs DMSO), 5 days (fraction); higher = more cells survive
- CONDITION NOTES: first compound 0.006325 µM
// reported relative viability for each item listed

Answered cases to consult:
molecule="CC(=O)O[C@@]12CO[C@@H]1C[C@H](O)[C@@]1(C)C(=O)[C@H](O)C3=C(C)[C@@H](OC(=O)[C@H](O)[C@@H](NC(=O)OC(C)(C)C)c4ccccc4)C[C@@](O)([C@@H](OC(=O)c4ccccc4)[C@H]21)C3(C)C [Docetaxel] + CCNC(=O)c1noc(-c2cc(C(C)C)c(O)cc2O)c1-c1ccc(CN2CCOCC2)cc1 [Luminespib] (partner 0.01 µM)" metric="relative viability" reported_value=0.0836
molecule="CC(=O)O[C@@]12CO[C@@H]1C[C@H](O)[C@@]1(C)C(=O)[C@H](O)C3=C(C)[C@@H](OC(=O)[C@H](O)[C@@H](NC(=O)OC(C)(C)C)c4ccccc4)C[C@@](O)([C@@H](OC(=O)c4ccccc4)[C@H]21)C3(C)C [Docetaxel] + COc1cccc2cc(-c3nc([C@H]4CC[C@H](C(=O)O)CC4)n4ncnc(N)c34)[nH]c12 [OSI-027] (partner 0.5 µM)" metric="relative viability" reported_value=0.159
molecule="CC(=O)O[C@@]12CO[C@@H]1C[C@H](O)[C@@]1(C)C(=O)[C@H](O)C3=C(C)[C@@H](OC(=O)[C@H](O)[C@@H](NC(=O)OC(C)(C)C)c4ccccc4)C[C@@](O)([C@@H](OC(=O)c4ccccc4)[C@H]21)C3(C)C [Docetaxel] + N=C(N)NC(=N)NCCc1ccccc1 [Phenformin] (partner 250 µM)" metric="relative viability" reported_value=0.0792

// below: relative viability requested for another molecule
Query string: # input molecule: CC(=O)O[C@@]12CO[C@@H]1C[C@H](O)[C@@]1(C)C(=O)[C@H](O)C3=C(C)[C@@H](OC(=O)[C@H](O)[C@@H](NC(=O)OC(C)(C)C)c4ccccc4)C[C@@](O)([C@@H](OC(=O)c4ccccc4)[C@H]21)C3(C)C [Docetaxel] + CC(C)C[C@H](NC(=O)[C@H](Cc1ccccc1)NC(=O)c1cnccn1)B(O)O [Bortezomib] (partner 0.002 µM) ; wanted: its relative viability
Result string: 0.168
